Test system: GENE-TOX genotoxicity assays, various organisms and cells
protocol-notes: GENE-TOX mutagenicity studies
condition-set: Species/Cell Type: Chinese hamster ovary (CHO) cells; Assay Type: Forward gene mutation at the HPRT locus; Assay Code: CHOT; Evaluation Type: Evaluation B (Post-1980)
measure-name: mutagenic call

OCc1ccc(-c2ccccc2)cc1; no conclusion
NC(=O)c1cccc(N)c1; no conclusion
CN(C)CCN(Cc1cccs1)c1ccccn1; no conclusion

###

Test system: GENE-TOX genotoxicity assays, various organisms and cells
protocol-notes: GENE-TOX mutagenicity studies
condition-set: Species/Cell Type: Mouse lymphoma (L5178Y) cells; Assay Type: Forward gene mutation at the thymidine kinase (TK) locus; chromosome aberrations; Assay Code: L51+; Evaluation Type: Evaluation A (Pre-1980)
Activity calls are given as the source filed them. How the calls were made is not given here.
measure-name: mutagenic call

CS(=O)(=O)OCCCCOS(C)(=O)=O; active; positive
BrCCBr; active; positive
CCN(CC)CCn1nc2c3c(c(C)ccc31)Sc1ccccc1-2; active; positive

###

Tested on: GENE-TOX genotoxicity assays, various organisms and cells
protocol-notes: GENE-TOX mutagenicity studies
condition-set: Species/Cell Type: Neurospora crassa; Assay Type: Forward gene mutation; Assay Code: NEF+; Evaluation Type: Evaluation A (Pre-1980)
Active and inactive are the calls of the source. How the calls were made is not given here.
measure-name: mutagenic call

CCN(CC)CCNc1ccc(CO)c2sc3ccccc3c(=O)c12; active; positive
Cc1ccc2cc3c(ccc4ccccc43)c3c2c1CC3; active; positive
NC(=O)c1ccc(/C=C/c2ccc([N+](=O)[O-])o2)cc1; active; positive
CN(C)CCOc1ccc2c(c1)CC/C(=C\c1ncc([N+](=O)[O-])n1C)C2=O; active; positive

###

Test system: GENE-TOX genotoxicity assays, various organisms and cells
protocol-notes: GENE-TOX mutagenicity studies
condition-set: Species/Cell Type: Saccharomyces cerevisiae; Assay Type: Mitotic recombination or gene conversion; Assay Code: YEH-; Evaluation Type: Evaluation A (Pre-1980)
The source made the active and inactive calls. No rule for the calls is given here.
measure-name: mutagenic call

Example entries and their recorded answers appear below.
CC[n+]1c(-c2ccccc2)c2cc(N)ccc2c2ccc(N)cc21; inactive; negative
O=c1[nH]c(=O)n([C@H]2C[C@H](O)[C@@H](CO)O2)cc1Br; inactive; negative
c1ccc2c(c1)ccc1c3ccccc3ccc21; inactive; negative
CNC(=O)O/N=C(\C)SC; inactive; negative
CC1CCCCC1NC(=O)Nc1ccccc1 (configuration not stated); inactive; negative
Clc1ccc(Oc2cc(Cl)c(Cl)cc2Cl)cc1; inactive; negative
CCOP(=S)(OCC)SCSP(=S)(OCC)OCC; inactive; negative
NC(N)=S; inactive; negative

// each listed compound needs a value for mutagenic call
1. C=C(C)C(=O)/C(=C\C(=O)O)OC
2. CCCCCCCCCCCCCC(=O)O[C@@H]1[C@@H](C)[C@@]2(O)[C@@H](C=C(CO)C[C@]3(O)C(=O)C(C)=C[C@@H]23)[C@@H]2C(C)(C)[C@]12OC(C)=O
3. Cc1ccc2nc3c(ccc4ccccc43)c(C)c2c1
4. CC(=O)OC[C@]12CCC(C)=C[C@H]1O[C@@H]1[C@H](O)[C@@H](OC(C)=O)[C@@]2(C)[C@]12CO2

[A]
["inactive; negative", "inactive; negative", "inactive; negative", "inactive; negative"]

Could I get mutagenic call for every one of these entries?
1. O=c1[nH]cc(Br)c(=O)[nH]1
2. CCOC(=O)CC(SP(=S)(OC)OC)C(=O)OCC (configuration not stated)
3. CC(=O)Nc1cc2c(cc1O)-c1ccccc1C2
4. Nc1ccccc1
5. N=C1C=CC(=C(c2ccc(N)cc2)c2ccc(N)cc2)C=C1

[A]
1. inactive; negative
2. inactive; negative
3. inactive; negative
4. inactive; negative
5. inactive; negative

This collection of values is drawn from PubChem BioAssay AID1259408.
